method_notes: In vitro metabolic stability in rabbit cornea homogenates
Type: in vitro ADME, Dutch Belted rabbits
setup_conditions: metabolite 2 as named under each value (Dexmedetomidine metabolite, brimonidine metabolite or brimonidine); 1 μM test compound, 0.3 mg/mL corneal protein homogenate, pH=6.0, 37° C.
Short version: Rate of formation Metabolite 2 at least 4 nM/min/mg is True, less is False.

# check: Rate of formation Metabolite 2 of CC[C@H](C(=O)OCOC(=O)N1CCN=C1Nc1ccc2nccnc2c1Br)[C@H](COC(C)=O)Cc1cncn1C is greater than or equal to 4 nM/min/mg
False

Form field: Rate of formation Metabolite 2 at least 4 nM/min/mg? Entry: CC[C@H](C(=O)OCOC(=O)N1CCN=C1Nc1ccc2[nH]cnc2c1Br)[C@H](CO)Cc1cncn1C
False

Given CC[C@H](C(=O)OCc1cccc([C@H](C)c2c[nH]cn2)c1C)[C@H](CO)Cc1cncn1C , state whether its Rate of formation Metabolite 2 is at least 4 nM/min/mg.
False

Tell me whether Rate of formation Metabolite 2 is at least 4 nM/min/mg here: CC[C@H](C(=O)OCc1cccc([C@H](C)c2c[nH]cn2)c1C)[C@H](COC(C)=O)Cc1cncn1C
False

Does the reported Rate of formation Metabolite 2 for CC[C@H](C(=O)OCOC(=O)N1CCN=C1Nc1ccc2nccnc2c1Br)[C@H](CO)Cc1cncn1C fall at or above the 4 nM/min/mg mark?
True

Reported Rate of formation Metabolite 2 at or above 4 nM/min/mg? CC[C@H](C(=O)OCOC(=O)N1CCN=C1Nc1ccc2[nH]cnc2c1Br)[C@H](COC(C)=O)Cc1cncn1C
True
